# experimentalTarget: T1, recombinant heparanase captured with rabbit anti-heparanase antibody (Homo sapiens, UniProt Q9Y251)
# T1 construct: Heparanase 8 and 50 kDa sub-units were cloned into pacGP67 as Sma 1-EcoR1 fragments; made in house; host or cells: Hi5 insect cells, baculovirus (pFastBac Dual)
# T1 sequence (Q9Y251 158-543 limits assumed): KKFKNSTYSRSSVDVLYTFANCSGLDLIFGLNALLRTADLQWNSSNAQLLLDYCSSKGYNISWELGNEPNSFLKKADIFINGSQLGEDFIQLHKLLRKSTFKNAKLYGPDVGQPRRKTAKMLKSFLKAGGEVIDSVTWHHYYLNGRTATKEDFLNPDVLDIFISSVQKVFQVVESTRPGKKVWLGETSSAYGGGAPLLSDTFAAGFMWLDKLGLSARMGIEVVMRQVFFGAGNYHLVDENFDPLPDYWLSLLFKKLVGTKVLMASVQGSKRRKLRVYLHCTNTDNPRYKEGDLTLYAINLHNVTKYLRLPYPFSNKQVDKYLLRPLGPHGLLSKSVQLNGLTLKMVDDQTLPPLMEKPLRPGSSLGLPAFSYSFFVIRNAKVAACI
# T1 sequence (Q9Y251 36-109 limits assumed): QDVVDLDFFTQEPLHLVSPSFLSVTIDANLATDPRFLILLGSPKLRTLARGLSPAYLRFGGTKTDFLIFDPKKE
# assaySummary: ELISA binding to antibody-captured heparanase
# experimentalParameters: antibody capture
experimentalEndpoint: Binding to captured heparanase (OD units)
A number alone suffices; assume OD units.

Item 15A1.2: fully human anti-heparanase monoclonal antibody, G2κ; VH SEQ ID NO 6, VL SEQ ID NO 8; ATCC PTA-9491 (antibody, listed as Homo Sapiens, V domains shown, fully human anti-heparanase monoclonal antibody, G2κ; ATCC PTA-9491) VH: QVQLVQSGAEVKKPGASVKVSCKVSGYTLTELSMHWVRQAPGKGLEWMGGFDPEDGETIFAQKFQGRVTMTEDTSTDTAYMELSSLRSEDTAVYYCATGLRFLEWFLWGWDVWGQGTTVTVSS VL: DIQMTQSPSSVSASVGDRVTITCRASQGISNWLAWYQQTPGKAPQLLIYGASSLQSGVPSRFSGSGSGTDFTLTISSLQPEDFATYYCQQADSFPPTFGQGTKVEIK : provide Binding to captured heparanase
0.92
